Listed here are molecules together with their documented pKi.
# TGT: Delta-type opioid receptor (Homo sapiens, UniProt P41143)
# Sequence (P41143 whole entry): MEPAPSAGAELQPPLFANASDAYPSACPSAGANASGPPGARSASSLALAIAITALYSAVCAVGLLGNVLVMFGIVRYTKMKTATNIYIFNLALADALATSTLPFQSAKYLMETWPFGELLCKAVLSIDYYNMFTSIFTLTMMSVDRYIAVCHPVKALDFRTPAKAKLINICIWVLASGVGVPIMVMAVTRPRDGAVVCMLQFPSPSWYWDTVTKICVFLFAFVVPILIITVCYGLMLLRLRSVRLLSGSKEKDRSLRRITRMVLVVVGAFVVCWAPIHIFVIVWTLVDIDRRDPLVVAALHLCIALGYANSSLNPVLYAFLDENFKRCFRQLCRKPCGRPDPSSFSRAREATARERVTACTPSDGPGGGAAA
# ASSAY: Displacement of [3H]diprenorphine from human cloned delta opioid receptor
# pKi: negative log10 of molar concentration; output just the value

Sample records with pKi:
[
  {
    "SUBSTANCE SMILES": "C[C@H]1CN(CCC(=O)N(C)[C@@H](Cc2ccccc2)C(=O)O)CC[C@@]1(C)c1cccc(O)c1",
    "TGT": "Delta-type opioid receptor (Homo sapiens, UniProt P41143)",
    "pKi": 6.21
  },
  {
    "SUBSTANCE SMILES": "C[C@H]1CN(CCC(=O)N(Cc2cccc(Cl)c2)[C@@H](Cc2ccccc2)C(=O)O)CC[C@@]1(C)c1cccc(O)c1",
    "TGT": "Delta-type opioid receptor (Homo sapiens, UniProt P41143)",
    "pKi": 7.62
  },
  {
    "SUBSTANCE SMILES": "C[C@H]1CN(CCC(=O)N[C@@H](Cc2ccc(-c3ccccc3)cc2)C(=O)O)CC[C@@]1(C)c1cccc(O)c1",
    "TGT": "Delta-type opioid receptor (Homo sapiens, UniProt P41143)",
    "pKi": 6.80
  },
  {
    "SUBSTANCE SMILES": "C[C@H]1CN(C[C@H](Cc2ccccc2)C(=O)N[C@@H](CCc2ccccc2)C(=O)O)CC[C@@]1(C)c1cccc(O)c1",
    "TGT": "Delta-type opioid receptor (Homo sapiens, UniProt P41143)",
    "pKi": 8.00
  },
  {
    "SUBSTANCE SMILES": "C[C@H]1CN(CCC(=O)N[C@@H](CC2CCCCC2)C(=O)O)CC[C@@]1(C)c1cccc(O)c1",
    "TGT": "Delta-type opioid receptor (Homo sapiens, UniProt P41143)",
    "pKi": 6.77
  }
]

IN: Tell me pKi reported for `C[C@H]1CN(CCC(=O)N[C@@H](Cc2ccccc2)C(=O)O)CC[C@@]1(C)c1cccc(O)c1`
OUT: 6.00

IN: Tell me pKi reported for `C[C@H]1CN(C[C@H](Cc2ccccc2)C(=O)N[C@@H](Cc2ccc3ccccc3c2)C(=O)O)CC[C@@]1(C)c1cccc(O)c1`
OUT: 8.49

IN: Tell me pKi reported for `C[C@H]1CN(C[C@H](Cc2ccccc2)C(=O)NCC(=O)O)CC[C@@]1(C)c1cccc(O)c1`
OUT: 7.92

IN: Tell me pKi reported for `C[C@H](NC(=O)[C@@H](Cc1ccccc1)CN1CC[C@@](C)(c2cccc(O)c2)[C@@H](C)C1)C(=O)O`
OUT: 7.66

IN: Tell me pKi reported for `C[C@H]1CN(C[C@H](Cc2ccccc2)C(=O)N[C@@H](Cc2ccccc2)C(=O)O)CC[C@@]1(C)c1cccc(O)c1`
OUT: 7.82

IN: Tell me pKi reported for `C[C@H]1CN(CCC(=O)N(c2ccccc2)[C@@H](Cc2ccccc2)C(=O)O)CC[C@@]1(C)c1cccc(O)c1`
OUT: 7.17

IN: Tell me pKi reported for `C[C@@H](NC(=O)[C@@H](Cc1ccccc1)CN1CC[C@@](C)(c2cccc(O)c2)[C@@H](C)C1)C(=O)O`
OUT: 7.13

IN: Tell me pKi reported for `C[C@H]1CN(CCC(=O)N(CC2CC2)[C@@H](Cc2ccccc2)C(=O)O)CC[C@@]1(C)c1cccc(O)c1`
OUT: 7.00

IN: Tell me pKi reported for `CCN(C(=O)CCN1CC[C@@](C)(c2cccc(O)c2)[C@@H](C)C1)[C@@H](Cc1ccccc1)C(=O)O`
OUT: 6.29

IN: Tell me pKi reported for `C[C@H]1CN(C[C@H](Cc2ccccc2)C(=O)N[C@@H](CCC(=O)O)C(=O)O)CC[C@@]1(C)c1cccc(O)c1`
OUT: 6.44

IN: Tell me pKi reported for `C[C@H]1CN(CCC(=O)N[C@@H](CCc2ccccc2)C(=O)O)CC[C@@]1(C)c1cccc(O)c1`
OUT: 6.44
